Molecular target: UniProt P22303
Assay: Inhibition of AChE (unknown origin) at 100 uM relative to control
Please go through the items and note down their inhibition.
Express your answer in %, writing the number without its unit.

inhibition measured on `COc1cc(O)c(C(=O)/C=C/c2ccc(O)cc2)cc1CC=C(C)C` = 46

inhibition measured on COc1cc2c(cc1CC=C(C)C)C(=O)CC(c1ccc(O)cc1)O2 (centres undefined) = 80

inhibition measured on `CC(C)=CCc1cc2c(cc1O)O[C@H](c1ccc(O)cc1)CC2=O` = 34

inhibition measured on `CC(C)=CCc1c(O)ccc(C(=O)/C=C/c2ccc(O)cc2)c1O` = 83

* * *

Target: Beta-secretase 1 (Homo sapiens)
Experiment: Inhibition of BACE1 (unknown origin) at 100 uM relative to control
Endpoint Label: inhibition (%)
Express your answer in %, writing the number without its unit.

inhibition measured on `CC(C)=CCc1cc2c(cc1O)O[C@H](c1ccc(O)cc1)CC2=O` = 14

inhibition measured on `COc1cc(O)c(C(=O)/C=C/c2ccc(O)cc2)cc1CC=C(C)C` = 68

inhibition measured on COc1cc2c(cc1CC=C(C)C)C(=O)CC(c1ccc(O)cc1)O2 (centres undefined) = 20

inhibition measured on `CC(C)=CCc1c(O)ccc(C(=O)/C=C/c2ccc(O)cc2)c1O` = 34

* * *

Biological target: Acetylcholinesterase (Homo sapiens, UniProt P22303)
Sequence (P22303 whole entry): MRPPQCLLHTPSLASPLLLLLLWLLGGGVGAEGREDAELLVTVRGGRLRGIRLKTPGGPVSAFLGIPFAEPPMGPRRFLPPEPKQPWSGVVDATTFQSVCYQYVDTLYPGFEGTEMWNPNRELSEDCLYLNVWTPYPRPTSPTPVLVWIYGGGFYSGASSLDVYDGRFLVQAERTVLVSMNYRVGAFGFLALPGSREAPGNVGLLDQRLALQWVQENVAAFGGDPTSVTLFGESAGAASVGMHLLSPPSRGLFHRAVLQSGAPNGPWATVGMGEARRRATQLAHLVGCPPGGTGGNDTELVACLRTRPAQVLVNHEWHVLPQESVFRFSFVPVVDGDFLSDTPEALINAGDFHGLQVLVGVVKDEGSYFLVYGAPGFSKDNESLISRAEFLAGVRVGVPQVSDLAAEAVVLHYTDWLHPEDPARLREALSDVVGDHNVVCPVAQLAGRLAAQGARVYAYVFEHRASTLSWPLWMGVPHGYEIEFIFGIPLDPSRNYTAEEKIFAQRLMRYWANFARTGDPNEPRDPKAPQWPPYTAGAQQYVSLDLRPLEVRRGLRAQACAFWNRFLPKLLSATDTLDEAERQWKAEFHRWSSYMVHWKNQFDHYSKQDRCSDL
Assay: Inhibition of AChE (unknown origin)
Please go through the items and note down their IC50.
Express your answer in nM, writing the number without its unit.

IC50 measured on `O=c1c(/C=N/Nc2ccc(C(F)(F)F)cc2)coc2c1ccc1oc(-c3ccc(Cl)cc3)cc12` = 5400

IC50 measured on `COc1cc(/C=C/c2nnc(-c3ccc(F)cc3F)o2)ccc1O` = 0.19

IC50 measured on `COc1ccc(/C=C/C(=O)c2cc(I)c(OC)cc2O)cc1` = 11

IC50 measured on `COc1ccc(/C=C/C(=O)c2cc(I)c(Cl)cc2O)cc1` = 11.7

IC50 measured on `O=C1Cc2cc(N3C(=O)c4ccccc4C3=O)ccc2CN1C(=O)c1ccccc1` = 65.6

IC50 measured on `COc1cc(/C=C/c2nnc(-c3ccc(OC(F)(F)F)cc3)o2)ccc1O` = 0.092

IC50 measured on `COc1ccc(C(=O)N2Cc3ccc(N4C(=O)c5ccccc5C4=O)cc3CC2=O)cc1` = 81.8

IC50 measured on `COc1ccc(NC(=O)C2CCN(C(=O)c3ccccc3)CC2)cc1OC` = 4.11

IC50 measured on `Cc1cc2c(c(C)c1CCO[C@@H]1O[C@H](CO)[C@@H](O)[C@H](O)[C@H]1O)C(=O)[C@H](C)[C@H]2O` = 3770

IC50 measured on CCC1=CC2Cc3nc4cc(Cl)ccc4c(NCCCN4CCC(CC5Cc6cc(OC)c(OC)cc6C5)CC4)c3C(C1)C2 (racemic) = 6.32

* * *

Molecular target: Beta-secretase 1 (Homo sapiens, UniProt P56817)
Sequence (P56817 whole entry): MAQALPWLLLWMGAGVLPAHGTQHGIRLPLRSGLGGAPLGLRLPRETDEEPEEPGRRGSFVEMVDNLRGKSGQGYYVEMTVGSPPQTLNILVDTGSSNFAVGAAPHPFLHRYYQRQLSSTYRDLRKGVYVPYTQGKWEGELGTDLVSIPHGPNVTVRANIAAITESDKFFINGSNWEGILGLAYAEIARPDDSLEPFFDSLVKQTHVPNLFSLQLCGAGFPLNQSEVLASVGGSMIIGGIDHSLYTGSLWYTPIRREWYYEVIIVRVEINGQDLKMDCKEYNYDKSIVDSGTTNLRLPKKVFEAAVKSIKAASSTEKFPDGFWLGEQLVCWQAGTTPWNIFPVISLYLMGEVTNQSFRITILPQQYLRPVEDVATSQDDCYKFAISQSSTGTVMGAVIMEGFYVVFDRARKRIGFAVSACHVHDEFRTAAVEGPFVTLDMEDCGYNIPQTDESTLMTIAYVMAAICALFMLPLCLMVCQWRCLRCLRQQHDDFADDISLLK
Assay: Inhibition of human recombinant BACE1
Endpoint Label: IC50 (nM)
Express your answer in nM, writing the number without its unit.

IC50 measured on `CCCCCCCCCCCC1=CC(=O)C=CC1=O` = 2110

* * *

Biological target: UniProt:P56817
Test: Inhibition of BACE1 (unknown origin)
Please go through the items and note down their pIC50.
Expect pIC50 as a plain number equal to -log10 of the molar concentration.

pIC50 measured on `COc1ccccc1NCC1CCN(Cc2ccccc2)CC1` = 6.56

pIC50 measured on `COc1ccc(C(=O)N2Cc3ccc(N4C(=O)c5ccccc5C4=O)cc3CC2=O)cc1` = 8.77

pIC50 measured on `Cc1cc2c(c(C)c1CCO[C@@H]1O[C@H](CO)[C@@H](O)[C@H](O)[C@H]1O)C(=O)[C@H](C)[C@H]2O` = 5.01

pIC50 measured on `COc1ccc(NCC2CCN(Cc3ccccc3)CC2)cc1OC` = 6.61

pIC50 measured on `COc1ccc(-c2oc3cc(Br)c(I)cc3c(=O)c2O)cc1` = 7.80

pIC50 measured on `O=c1c(/C=N/Nc2ccc(C(F)(F)F)cc2)coc2c1ccc1oc(-c3ccc(Cl)cc3)cc12` = 4.87

pIC50 measured on `COc1cc(/C=C/c2nnc(-c3ccc(F)cc3)o2)ccc1O` = 9.32

pIC50 measured on `COc1ccc(NCC2CCN(Cc3ccccc3)CC2)cc1` = 6.60

pIC50 measured on `COc1ccc(/C=C/C(=O)c2cc(I)c(OC)cc2O)cc1` = 7.15

pIC50 measured on `Cc1cc2c(c(C)c1CCO[C@@H]1O[C@H](CO)[C@@H](O)[C@H](O)[C@H]1O)C(=O)[C@H](C)C2` = 4.74

pIC50 measured on `COc1cc(/C=C/c2nnc(-c3ccc(OC(F)(F)F)cc3)o2)ccc1O` = 9.68

pIC50 measured on `COc1ccc(-c2cc3cc4c(=O)c(/C=N/Nc5ccc(C(F)(F)F)cc5)coc4cc3o2)cc1` = 4.60

pIC50 measured on `COc1ccc(NC(=O)C2CCN(C(=O)c3ccccc3)CC2)cc1OC` = 7.74

pIC50 measured on `Cc1cccc(C(=O)N2Cc3ccc(N4C(=O)c5ccccc5C4=O)cc3CC2=O)c1` = 8.35
